Counter-ions that a name gives are not always drawn.
experimental endpoint: melting point

{"compound": "N#Cc1ccc(Oc2cc(Cl)cc(Cl)c2)c(S(=O)(=O)N2CCC(N3CCCC3)CC2)c1", "experimental endpoint": "melting point", "reported value": "186 to 187 °C"}
{"compound": "N[C@H]1CCN(S(=O)(=O)c2cc([N+](=O)[O-])ccc2Sc2cc(Cl)cc(Cl)c2)C1", "experimental endpoint": "melting point", "reported value": "263 °C"}
{"compound": "Cc1cc(C)cc(Oc2ccc(-c3nnnn3CCC#N)cc2S(=O)(=O)N2CCNCC2)c1 (as salt: hydrochloride)", "experimental endpoint": "melting point", "reported value": "125 °C"}
{"compound": "Cc1cc(C)cc(Oc2ccc([N+](=O)[O-])cc2S(=O)(=O)N2CCN(C)CC2)c1", "experimental endpoint": "melting point", "reported value": "131 to 132 °C"}
{"compound": "Cc1cccc(Oc2ccc([N+](=O)[O-])cc2S(=O)(=O)N2CCNCC2)c1C.Cl", "experimental endpoint": "melting point", "reported value": "142 °C"}
{"compound": "Cc1cc(C)cc(Oc2ccc(CO)cc2S(=O)(=O)N2CCNCC2)c1 (as salt: hydrochloride)", "experimental endpoint": "melting point", "reported value": "160 °C"}
{"compound": "Cc1cc(C)cc(Oc2ccc(F)cc2S(=O)(=O)N2CCNCC2)c1", "experimental endpoint": "melting point", "reported value": "116 to 118 °C"}
{"compound": "Cc1cc(C)cc(Oc2cc(C(F)(F)F)ccc2S(=O)(=O)N2CCNCC2)c1.Cl", "experimental endpoint": "melting point", "reported value": "250 to 251 °C"}
{"compound": "Cc1cccc(Sc2ccc([N+](=O)[O-])cc2S(=O)(=O)N2CCNCC2)c1.Cl", "experimental endpoint": "melting point", "reported value": "229 to 231 °C"}
{"compound": "Cl.O=[N+]([O-])c1ccc(Oc2c(F)c(F)cc(F)c2F)c(S(=O)(=O)N2CCNCC2)c1", "experimental endpoint": "melting point", "reported value": "104 °C"}
{"compound": "Cc1cc(C)cc(Sc2ccc([N+](=O)[O-])cc2S(=O)(=O)N2CCN(CC3CCCO3)CC2)c1 (stereo not shown)", "experimental endpoint": "melting point", "reported value": "143 to 144 °C"}
{"compound": "CCN1CCN(S(=O)(=O)c2cc(I)ccc2Oc2cc(C)cc(C)c2)CC1", "experimental endpoint": "melting point", "reported value": "133 to 134 °C"}
{"compound": "Cc1ccc([N+](=O)[O-])c(Oc2ccc([N+](=O)[O-])cc2S(=O)(=O)N2CCNCC2)c1.Cl", "experimental endpoint": "melting point", "reported value": "215 °C"}
{"compound": "N#Cc1ccc(Oc2cc(Cl)cc(Cl)c2)c(S(=O)(=O)N2CCNCC2C(=O)O)c1 (stereo not shown)", "experimental endpoint": "melting point", "reported value": "262 °C"}
{"compound": "Cc1cc(C)cc(Oc2ccc([N+](=O)[O-])cc2S(=O)(=O)N2C(C)CNCC2C)c1.Cl (stereo not shown)", "experimental endpoint": "melting point", "reported value": "> 300 °C"}
{"compound": "Cl.Nc1cccc(Oc2ccc([N+](=O)[O-])cc2S(=O)(=O)N2CCNCC2)c1", "experimental endpoint": "melting point", "reported value": "248 °C"}
